Experiment: Half life at 10 mg/kg was determined in rat
Assay type: ADME, organism-based
Parameters: dose 10 mg/kg
Conditions: in vivo
Measured Property: half-life (h)
Give the quantity in h, number only.

Challenge: Requested field: half-life. Item: CCC[C@@H]1CC(=O)N([C@@H](CC)C(N)=O)C1
Response given: 1.7

Cited source for all entries: ChEMBL document CHEMBL1148391
